- experimental system: human cMET (human, UniProt P08581 25-932)
- Sequence (P08581 25-932 limits assumed): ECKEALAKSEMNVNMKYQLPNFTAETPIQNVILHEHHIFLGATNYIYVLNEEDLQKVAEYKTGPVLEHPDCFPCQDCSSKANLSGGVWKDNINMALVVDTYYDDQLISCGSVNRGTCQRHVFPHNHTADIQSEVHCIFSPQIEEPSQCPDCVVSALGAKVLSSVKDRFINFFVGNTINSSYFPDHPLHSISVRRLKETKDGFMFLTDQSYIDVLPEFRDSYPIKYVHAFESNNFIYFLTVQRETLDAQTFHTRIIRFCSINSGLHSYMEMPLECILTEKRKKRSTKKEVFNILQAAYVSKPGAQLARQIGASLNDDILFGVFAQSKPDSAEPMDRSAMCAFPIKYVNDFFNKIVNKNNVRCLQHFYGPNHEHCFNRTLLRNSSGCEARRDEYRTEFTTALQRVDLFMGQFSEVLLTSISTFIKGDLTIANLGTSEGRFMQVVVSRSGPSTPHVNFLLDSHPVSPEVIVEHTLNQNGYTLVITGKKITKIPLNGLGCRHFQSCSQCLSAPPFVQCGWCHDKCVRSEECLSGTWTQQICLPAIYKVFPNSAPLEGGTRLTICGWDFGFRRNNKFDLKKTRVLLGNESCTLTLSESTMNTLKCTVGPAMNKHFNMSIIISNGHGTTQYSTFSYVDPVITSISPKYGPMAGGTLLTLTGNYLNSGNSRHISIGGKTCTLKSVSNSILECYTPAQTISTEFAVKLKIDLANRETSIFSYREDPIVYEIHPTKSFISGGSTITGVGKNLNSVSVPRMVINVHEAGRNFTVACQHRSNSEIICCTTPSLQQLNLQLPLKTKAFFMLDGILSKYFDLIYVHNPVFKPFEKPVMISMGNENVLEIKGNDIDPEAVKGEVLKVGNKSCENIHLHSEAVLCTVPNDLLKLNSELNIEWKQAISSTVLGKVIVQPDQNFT
- measurement description: phage TRF on cMET
Examples of binders with documented TRF signal follow.

KB_A12_cMET_H08 (scFv, V domains shown) VH: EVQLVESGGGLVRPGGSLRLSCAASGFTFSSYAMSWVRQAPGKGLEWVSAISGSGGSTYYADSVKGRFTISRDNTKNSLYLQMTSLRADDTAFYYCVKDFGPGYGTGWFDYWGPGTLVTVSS VL: AVNWYQQLPGKAPKLLIYAAGRCQTGRSGTGRCKQDSDCLAGCVCGPNGFCGANSGVSDRFSAAKSGTSASLAINGLRSEDEADYYCAAWDDSLNGYVFGTGTKLTVLG: 6730
KB_A12_cMET_E04 (scFv, V domains shown) VH: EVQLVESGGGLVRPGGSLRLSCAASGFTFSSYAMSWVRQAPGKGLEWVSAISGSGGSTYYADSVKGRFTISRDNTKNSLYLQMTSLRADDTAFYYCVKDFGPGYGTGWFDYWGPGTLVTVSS VL: AVNWYQQLPGKAPKLLIYAAGRCGHLSGTGRCKQDSDCLAGCVCGPNGFCGANSGVSDRFSAAKSGTSASLAINGLRSEDEADYYCAAWDDSLNGYVFGTGTKLTVLG: 41300

Turning to the following binder.
(Q) What value of measured TRF signal is listed for KB_A12_cMET_F05 (scFv, V domains shown) VH: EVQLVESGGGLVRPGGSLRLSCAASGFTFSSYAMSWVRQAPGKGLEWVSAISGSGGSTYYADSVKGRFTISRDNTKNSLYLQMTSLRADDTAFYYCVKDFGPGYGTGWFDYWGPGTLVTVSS VL: AVNWYQQLPGKAPKLLIYAAGRCKRLMSGAGRCKQDSDCLAGCVCGPNGFCGANSGVSDRFSAAKSGTSASLAINGLRSEDEADYYCAAWDDSLNGYVFGTGTKLTVLG ?
(A) 59600
